Test system: A431 cells
procedure details: A431 Cell Growth Inhibition Test (MTT Assay)
Type: cell-based, human
stated conditions: Homo sapiens, A-431, 68 h incubation
Protocol: A431 Cell Growth Inhibition Test (MTT Assay) 1. Cell strains: A431 (human epithelial […] cell strains); Culture medium: 45% DMEM, 45% F12+10% FBS; 1. A plate (10 cm) of cells in logarithmic growth phase normally cultured was collected; 2. The culture solution was sucked out. The plate was washed with 5 ml of PBS 1-2 times; 3. PBS was sucked out, and 2 ml of 0.25% pancreatin was added to infiltrate the cells for 1 min; 4. […] 10. OD values were determined at 490 nM. […]
pIC50: −log10 of the molar value.
readout name: pIC50

• CN(C)C/C=C/C(=O)Nc1cc2c(Nc3ccc(OCc4cccc(F)c4)c(Cl)c3)c(C#N)cnc2cc1OC1CCOC1 (stereo not shown) [Example 9] = 6.87
• C#Cc1cccc(Nc2c(C#N)cnc3cc(O[C@H]4CCOC4)c(NC(=O)/C=C/CN4CCCCC4)cc23)c1 [Example 144] = 7.59
• CN(C)C/C=C/C(=O)Nc1cc2c(Nc3ccc(OCc4ccccc4)c(Cl)c3)c(C#N)cnc2cc1OC1CCOC1 (stereo not shown) [Example 12] = 6.83
• C#Cc1cccc(Nc2c(C#N)cnc3cc(O[C@H]4CCOC4)c(NC(=O)/C=C/CN4CCOCC4)cc23)c1 [Example 145] = 7.15
• CN(C)C/C=C/C(=O)Nc1cc2c(Nc3cccc(Br)c3)c(C#N)cnc2cc1OC1CCOC1 (stereo not shown) [Example 7] = 6.80
• CN(C)C/C=C/C(=O)Nc1cc2c(Nc3ccc(OCc4cccc(C#N)c4)c(Cl)c3)c(C#N)cnc2cc1OC1CCOC1 (stereo not shown) [Example 15] = 6.43
• C#Cc1cccc(Nc2c(C#N)cnc3cc(O[C@H]4CCOC4)c(NC(=O)/C=C/CN(C)Cc4ccccc4)cc23)c1 [Example 149] = 7.05
• N#Cc1cnc2cc(O[C@H]3CCOC3)c(NC(=O)/C=C/CNCCCCCCO)cc2c1Nc1ccc(OCc2ccccn2)c(Cl)c1 [Example 154] = 6.79
• C#Cc1cccc(Nc2c(C#N)cnc3cc(O[C@H]4CCOC4)c(NC(=O)/C=C/CN(CC)CC)cc23)c1 [Example 143] = 7.23
• C#Cc1cccc(Nc2c(C#N)cnc3cc(OC4CCOC4)c(NC(=O)/C=C/CN(C)C)cc23)c1 (stereo not shown) [Example 5] = 7.62
• Cc1ccccc1COc1ccc(Nc2c(C#N)cnc3cc(OC4CCOC4)c(NC(=O)/C=C/CN(C)C)cc23)cc1Cl (stereo not shown) [Example 17] = 6.71
• CCN(CC)C/C=C/C(=O)Nc1cc2c(Nc3ccc(OCc4ccccn4)c(Cl)c3)c(C#N)cnc2cc1O[C@H]1CCOC1 [Example 150] = 7.57
• C#Cc1cccc(Nc2c(C#N)cnc3cc(O[C@H]4CCOC4)c(NC(=O)/C=C/CN(C)C)cc23)c1 [Example 140] = 7.59
• CN(C)C/C=C/C(=O)Nc1cc2c(Nc3ccc(OCc4ccccn4)c(Cl)c3)c(C#N)cnc2cc1O[C@H]1CCOC1 [Example 138] = 7.21
• CN(C)C/C=C/C(=O)Nc1cc2c(Nc3ccc(F)c(Cl)c3)c(C#N)cnc2cc1OC1CCOC1 (stereo not shown) [Example 4] = 7.17
• Cc1ccc(COc2ccc(Nc3c(C#N)cnc4cc(OC5CCOC5)c(NC(=O)/C=C/CN(C)C)cc34)cc2Cl)cc1 (stereo not shown) [Example 19] = 6.41
